# Test system: ovine ABCG2
# ASSAY NOTES: in vitro
# REPORTED CONDITIONS: sheep
REPORTED ENDPOINT: efflux ratio at 4 h, 10 μM

Tell us which efflux ratio at 4 h, 10 μM value is on record for Nc1cc(C(Cl)=C(Cl)Cl)c(S(N)(=O)=O)cc1S(N)(=O)=O [Clorsulon]
2.92

====

# ASSAY NOTES: Transepithelial transport of clorsulon across MDCKII parental cell monolayers
# Type: in vitro ADME, Canine
# REPORTED CONDITIONS: dog, MDCK; MDCKII parental cells; clorsulon 10 μM; with or without ivermectin 10 μM, abamectin 2.5 μM, Ko143 1 μM; mean ± SD, n ≥ 3; read-out: AP-BL (Papp A-B)
REPORTED ENDPOINT: Papp A→B at 4 h, 10 μM (×10⁻⁶ cm/s)
Give bare numbers, in ×10⁻⁶ cm/s.

Tell us which Papp A→B at 4 h, 10 μM value is on record for Nc1cc(C(Cl)=C(Cl)Cl)c(S(N)(=O)=O)cc1S(N)(=O)=O
2.27

====

# ASSAY NOTES: Transepithelial transport of clorsulon across MDCKII parental cell monolayers
# Type: in vitro ADME, Canine
# REPORTED CONDITIONS: dog, MDCK; MDCKII parental cells; clorsulon 10 μM; with or without ivermectin 10 μM, abamectin 2.5 μM, Ko143 1 μM; mean ± SD; read-out: Efflux ratio Papp B-A/Papp A-B
REPORTED ENDPOINT: efflux ratio at 4 h, 10 μM
Answers are plain numbers.

Tell us which efflux ratio at 4 h, 10 μM value is on record for Nc1cc(C(Cl)=C(Cl)Cl)c(S(N)(=O)=O)cc1S(N)(=O)=O
1.07

====

# Test system: ovine ABCG2
# ASSAY NOTES: in vitro
# REPORTED CONDITIONS: sheep
REPORTED ENDPOINT: Papp B→A at 4 h, 10 μM

Tell us which Papp B→A at 4 h, 10 μM value is on record for Nc1cc(C(Cl)=C(Cl)Cl)c(S(N)(=O)=O)cc1S(N)(=O)=O
3.23 ×10⁻⁶ cm/s

====

# ASSAY NOTES: Plasma pharmacokinetics of clorsulon in lactating Assaf sheep
# Type: in vivo
# REPORTED CONDITIONS: female, sc, clorsulon 2 mg/kg s.c., alone or with ivermectin or abamectin 0.2 mg/kg s.c., mean ± SD, n = 6
REPORTED ENDPOINT: Cmax (ng/mL)
One number for each entry, in ng/mL.

Tell us which Cmax value is on record for Nc1cc(C(Cl)=C(Cl)Cl)c(S(N)(=O)=O)cc1S(N)(=O)=O
2130

====

# ASSAY NOTES: Milk pharmacokinetics of clorsulon in lactating Assaf sheep
# Format: in vivo
# REPORTED CONDITIONS: female, Assaf, milk/plasma, subcutaneous; sheep; clorsulon 2 mg/kg s.c., alone or with ivermectin or abamectin 0.2 mg/kg s.c.; mean ± SD, n = 6; read-out: AUC milk/AUC plasma
REPORTED ENDPOINT: Kp
Answers are plain numbers.

Tell us which Kp value is on record for Nc1cc(C(Cl)=C(Cl)Cl)c(S(N)(=O)=O)cc1S(N)(=O)=O [Clorsulon]
0.49
